# TEST METHOD NOTES: Mouse PK evaluation, plasma, IV
# EXPERIMENTAL SETUP: CD-1, mouse, plasma, iv, 3 mg/kg, AUClast, Mean, 3 mg/kg IV, CD-1 mice
ASSAY ENDPOINT: AUC(0-t) (ng·h/mL)
Express the result in ng·h/mL but write the number alone.

Q) # lookup: AUC(0-t) of CN(C)CCCn1c(N)nc2ccc3c(c21)CC(CO)O3 (stereo not shown)
A) 786

====

# TEST METHOD NOTES: Mouse PK evaluation, plasma, IV
# EXPERIMENTAL SETUP: CD-1, mouse, in vivo, iv, 3 mg/kg, MRTInf_obs, Mouse 2, 3 mg/kg IV, CD-1 mice
ASSAY ENDPOINT: MRT inf

Q) # lookup: MRT inf of CN(C)CCCn1c(N)nc2ccc3c(c21)CC(CN(C)C)O3 (single isomer, unassigned) [Compound E2]
A) 12.2 h
